# test_summary: Everolimus pharmacokinetic analysis in whole blood
# assay_conditions: human, whole blood, oral, 5 mg
test_readout: concentration at 8 day
Record the result as number plus unit.

// query Note concentration at 8 day for the molecule shown: `CO[C@H]1C[C@@H]2CC[C@@H](C)[C@@](O)(O2)C(=O)C(=O)N2CCCC[C@H]2C(=O)O[C@H]([C@H](C)C[C@@H]2CC[C@@H](OCCO)[C@H](OC)C2)CC(=O)[C@H](C)/C=C(\C)[C@@H](O)[C@@H](OC)C(=O)[C@H](C)C[C@H](C)/C=C/C=C/C=C/1C`
// result 6.3 ng/mL

---

# test_summary: Everolimus pharmacokinetic analysis in whole blood
# assay_conditions: human, whole blood, oral, 10 mg
test_readout: concentration at 21 day (µg/mL)
Give the number; µg/mL is assumed, so skip it.

// query Note concentration at 21 day for the compound shown: CO[C@H]1C[C@@H]2CC[C@@H](C)[C@@](O)(O2)C(=O)C(=O)N2CCCC[C@H]2C(=O)O[C@H]([C@H](C)C[C@@H]2CC[C@@H](OCCO)[C@H](OC)C2)CC(=O)[C@H](C)/C=C(\C)[C@@H](O)[C@@H](OC)C(=O)[C@H](C)C[C@H](C)/C=C/C=C/C=C/1C [everolimus]
// result 0.0137

---

# test_summary: Everolimus pharmacokinetic analysis in whole blood
# assay_conditions: human, whole blood, oral, 10 mg, Day 8 AUC0-24, 10 mg daily (n=7), whole blood
test_readout: AUC(0-t) (ng·h/mL)
Give the number; ng·h/mL is assumed, so skip it.

// query Note AUC(0-t) for the molecule shown: CO[C@H]1C[C@@H]2CC[C@@H](C)[C@@](O)(O2)C(=O)C(=O)N2CCCC[C@H]2C(=O)O[C@H]([C@H](C)C[C@@H]2CC[C@@H](OCCO)[C@H](OC)C2)CC(=O)[C@H](C)/C=C(\C)[C@@H](O)[C@@H](OC)C(=O)[C@H](C)C[C@H](C)/C=C/C=C/C=C/1C [everolimus]
// result 579

---

# test_summary: Everolimus pharmacokinetic analysis in whole blood
# assay_conditions: human, whole blood, oral, 5 mg, Day 1 Cmax, 5 mg daily (n=12), whole blood
test_readout: Cmax (ng/mL)
Give the number; ng/mL is assumed, so skip it.

// query Note Cmax for the compound shown: CO[C@H]1C[C@@H]2CC[C@@H](C)[C@@](O)(O2)C(=O)C(=O)N2CCCC[C@H]2C(=O)O[C@H]([C@H](C)C[C@@H]2CC[C@@H](OCCO)[C@H](OC)C2)CC(=O)[C@H](C)/C=C(\C)[C@@H](O)[C@@H](OC)C(=O)[C@H](C)C[C@H](C)/C=C/C=C/C=C/1C [everolimus]
// result 29.2

---

# test_summary: Everolimus pharmacokinetic analysis in whole blood
# assay_conditions: human, whole blood, oral, 5 mg
test_readout: concentration at 21 day (ng/mL)
Give the number; ng/mL is assumed, so skip it.

// query Note concentration at 21 day for the compound shown: CO[C@H]1C[C@@H]2CC[C@@H](C)[C@@](O)(O2)C(=O)C(=O)N2CCCC[C@H]2C(=O)O[C@H]([C@H](C)C[C@@H]2CC[C@@H](OCCO)[C@H](OC)C2)CC(=O)[C@H](C)/C=C(\C)[C@@H](O)[C@@H](OC)C(=O)[C@H](C)C[C@H](C)/C=C/C=C/C=C/1C [everolimus]
// result 5.7
